Examples of binders with documented binding affinity (ELISA fit) follow.
- tgt: T1, Mouse HVEM-Fc (mouse, UniProt Q80WM9)
- T1 construct: part fused to Fc; also called mouse HVEM-mFc; mHVEM
- T1 sequence (fusion chain, looked up): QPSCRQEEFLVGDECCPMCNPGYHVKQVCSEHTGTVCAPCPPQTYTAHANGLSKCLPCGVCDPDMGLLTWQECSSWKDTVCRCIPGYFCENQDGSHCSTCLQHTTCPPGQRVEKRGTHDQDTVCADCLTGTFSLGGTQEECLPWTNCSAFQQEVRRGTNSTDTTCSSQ
- test: ELISA, coated mouse HVEM-mFc 0.2 ug/ml, anti-human IgG4-HRP, SigmaPlot fit
The reply should be a number in pM, with the unit left off.

| binder | binding affinity (ELISA fit), pM |
| --- | --- |
| HVEM039 (antibody, human IgG4 S228P, kappa, V domains shown) VH: EVQLLESGGGLVQPGGSLRLSCAASGFTFSSYGMNWVRQAPGKGLEWVSIINPSGDTTTYAQKFQGRFTISRDNSKNTLYLQMNSLRAEDTAVYYCARGRGAFDYWGQGTLVTVSS VL: EIVLTQSPGTLSLSPGERATLSCRASRSVGKYLAWYQQKPGQAPRLLIYGATSRATGIPDRFSGSGSGTDFTLTISRLEPEDFAVYYCQQYGSSPPVTFGQGTKVEIKR | 334 |
| HVEM041 (antibody, human IgG4 S228P, kappa, V domains shown) VH: EVQLLESGGGLVQPGGSLRLSCAASGFTFSSYAMSWVRQAPGKGLEWVSEISQSGSSNYNPSLKSRFTISRDNSKNTLYLQMNSLRAEDTAVYYCATGRWRFDYWGQGTLVTVSS VL: EIVLTQSPGTLSLSPGERATLSCRASRSVGKYLAWYQQKPGQAPRLLIYGASTRATGIPDRFSGSGSGTDFTLTISRLEPEDFAVYYCQQYGSSPPVTFGQGTKVEIKR | 141 |

For the next question, use this binder.
Form: binder = HVEM017 (antibody, human IgG4 S228P, kappa, V domains shown, also called HVEM0017) VH: EVQLLESGGGLVQPGGSLRLSCAASGFTFSTNYMSWVRQAPGKGLEWVSLISYSGSNKYYADSVKGRFTISHDNSKNTLYLQMNSLRAEDTAVYYCARGRGNTISGTFDLWGQGTLVTVSS VL: EIVLTQSPGTLSLSPGERATLSCRASRSVGKYLAWYQQKPGQAPRLLIYSASTLSSGIPDRFSGSGSGTDFTLTISRLEPEDFAVYYCQQYGSSPPITFGQGTKVEIKR ; binding affinity (ELISA fit) = 112
